# experimental protocol: Inhibition of Helicobacter pylori uridine 5'-monophosphate synthase after overnight incubation at room temperature by VP-ITC microcalorimetry
assay metric: Ki (nM)
Please reply with the bare figure in nM and do not write the unit itself.

[Q] Using the record for NC(=O)c1[nH]nc([C@@H]2O[C@H](COP(=O)(O)O)[C@@H](O)[C@H]2O)c1O , state its measured Ki.
[A] 130

###

# measurement target: Orotidine 5'-phosphate decarboxylase (Saccharomyces cerevisiae S288c)
# experimental protocol: Inhibition of Saccharomyces cerevisiae uridine 5'-monophosphate synthase after overnight incubation at room temperature by VP-ITC microcalorimetry
assay metric: pKi
Note on units: pKi is unitless, being -log10 of a concentration expressed in mol/L.

{"test smiles": "NC(=O)c1[nH]nc([C@@H]2O[C@H](COP(=O)(O)O)[C@@H](O)[C@H]2O)c1O", "measurement target": "Orotidine 5'-phosphate decarboxylase (Saccharomyces cerevisiae S288c)", "pKi": 8.30}

Shifting focus to the compound that follows.
[Q] Using the record for O=c1cc(O)n([C@@H]2O[C@H](COP(=O)(O)O)[C@@H](O)[C@H]2O)c(=O)[nH]1 , state its measured pKi.
[A] 11.05

###

# measurement target: Orotidine 5'-phosphate decarboxylase (Saccharomyces cerevisiae S288c, UniProt P03962)
# Sequence (P03962 whole entry): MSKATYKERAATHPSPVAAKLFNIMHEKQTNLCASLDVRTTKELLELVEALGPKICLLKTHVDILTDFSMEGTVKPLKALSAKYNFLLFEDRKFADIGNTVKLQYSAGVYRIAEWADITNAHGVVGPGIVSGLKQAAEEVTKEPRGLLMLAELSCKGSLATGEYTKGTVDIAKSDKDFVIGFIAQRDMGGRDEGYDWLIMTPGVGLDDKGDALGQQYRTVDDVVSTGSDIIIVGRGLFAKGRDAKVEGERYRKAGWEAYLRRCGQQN
# experimental protocol: Inhibition of Saccharomyces cerevisiae uridine 5'-monophosphate synthase
assay metric: pKi
Note on units: pKi is unitless, being -log10 of a concentration expressed in mol/L.

[Q] Consider the compound O=c1cc(O)n([C@@H]2O[C@H](COP(=O)(O)O)[C@@H](O)[C@H]2O)c(=O)[nH]1 tested on Orotidine 5'-phosphate decarboxylase (Saccharomyces cerevisiae S288c, UniProt P03962); state its pKi.
[A] 11.06

The origin of these recorded values is ChEMBL document CHEMBL1165920.
